Reference for the values: patent US20250034594A1

Test system: gene editing with Cas9
Protocol: Screen of 322 new SSAP proteins, gene editing activity with Cas9 (Table 5)
Format: cell-based
Assay Setup: normalized
Measured Quantity: Cas9 with SSAP activity (normalized)

Record summary for SSAP_161: SEQ ID NO: 330; Solobacterium moorei (protein, listed as Solobacterium moorei) TEIKAAKAPATVAKAGVSTQNKTIKDYITIMKPEIEKALPSTITPERFTRITLSAVSNNPKLQACSPSTFLSAMMQSAQLGLEPNTPLGQAYLIPYGNSCQFQLGYKGLLQLAYNSGQIKTIRTETVYENDEFKYELGLHSDLVHVPAMSNRGNPTAYYAVIEYTNGGYGFEVMSHDDVLEHAKKFSKTFNNGPWQSDFESMAKKTVLKQALKYAPLSTELVSKINTDETVKSSISDHMEEVKNDIDLSQIIDAETGEIHE : reported Cas9 with SSAP activity (normalized) = −0.850

Record summary for SSAP_33: SEQ ID NO: 202 (protein) TTNQVVTHKNFFNAPNVQKSFDDVWKGAGVQFATSILSVIQGNASLKSASNESIMTSAMKAAVLNLPIEPSLGRAYLVPYKGQVQFQLGYKGLIELAQRSGKYKSINAGPVYKSQFVSYDPLFEELTLDFTQPQDEVIGYFASFSLLNGFRKLTYWTKAEVEAHGKKFSKTFGNGPWKTDFDAMARKTVLKHILSIYGPLSVEMQTGMQNDESENDNATRDIKTAEPVNADQQLLEDLMNVDTETGEILEEVSELKDNGELDLKYEDPNAR : reported Cas9 with SSAP activity (normalized) = 0.578
